abundance fitness by entry:
B1: Androgen receptor, residues 557 to 632; numbered along this chain, P10275 (parent)
chain: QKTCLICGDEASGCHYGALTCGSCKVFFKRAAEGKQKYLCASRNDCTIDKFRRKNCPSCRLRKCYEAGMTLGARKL

# Variants of: B1
# Experimental protocol: abundance fitness (aPCA) (normalised: wild type 0, dead -1); higher = more abundant; growth selection in yeast, the domain comes from the species named
# Measurement conditions: Homo sapiens
Endpoint name: abundance fitness

[[record]]
alteration = "D45G"
endpoint_name = "abundance fitness"
recorded_result = -0.162

[[record]]
alteration = "N44L"
endpoint_name = "abundance fitness"
recorded_result = -0.251

[[record]]
alteration = "D49L"
endpoint_name = "abundance fitness"
recorded_result = -0.502

[[record]]
alteration = "D9E"
endpoint_name = "abundance fitness"
recorded_result = -0.171

[[record]]
alteration = "T20W"
endpoint_name = "abundance fitness"
recorded_result = -0.637

[[record]]
alteration = "K29N"
endpoint_name = "abundance fitness"
recorded_result = -0.123

[[record]]
alteration = "G22T"
endpoint_name = "abundance fitness"
recorded_result = -0.06

[[record]]
alteration = "S58Y"
endpoint_name = "abundance fitness"
recorded_result = -0.202

[[record]]
alteration = "V26E"
endpoint_name = "abundance fitness"
recorded_result = 0.014

[[record]]
alteration = "C40T"
endpoint_name = "abundance fitness"
recorded_result = -0.554

[[record]]
alteration = "N55M"
endpoint_name = "abundance fitness"
recorded_result = 0.216

[[record]]
alteration = "K37D"
endpoint_name = "abundance fitness"
recorded_result = -0.009

[[record]]
alteration = "L71Q"
endpoint_name = "abundance fitness"
recorded_result = -0.043

[[record]]
alteration = "C24P"
endpoint_name = "abundance fitness"
recorded_result = -0.853

[[record]]
alteration = "S12P"
endpoint_name = "abundance fitness"
recorded_result = -0.077

[[record]]
alteration = "A18F"
endpoint_name = "abundance fitness"
recorded_result = -0.684

[[record]]
alteration = "C14T"
endpoint_name = "abundance fitness"
recorded_result = 0.099

[[record]]
alteration = "K29D"
endpoint_name = "abundance fitness"
recorded_result = -0.258

[[record]]
alteration = "S12W"
endpoint_name = "abundance fitness"
recorded_result = -0.181

[[record]]
alteration = "G8V"
endpoint_name = "abundance fitness"
recorded_result = -0.868

[[record]]
alteration = "D49Y"
endpoint_name = "abundance fitness"
recorded_result = -0.634

[[record]]
alteration = "F27I"
endpoint_name = "abundance fitness"
recorded_result = -0.548

[[record]]
alteration = "Y38E"
endpoint_name = "abundance fitness"
recorded_result = -0.064

[[record]]
alteration = "K35E"
endpoint_name = "abundance fitness"
recorded_result = 0.084

[[record]]
alteration = "K63S"
endpoint_name = "abundance fitness"
recorded_result = -0.227

[[record]]
alteration = "L71M"
endpoint_name = "abundance fitness"
recorded_result = 0.115

[[record]]
alteration = "Y65E"
endpoint_name = "abundance fitness"
recorded_result = -0.092

[[record]]
alteration = "A18V"
endpoint_name = "abundance fitness"
recorded_result = -0.04

[[record]]
alteration = "F27S"
endpoint_name = "abundance fitness"
recorded_result = -0.983

[[record]]
alteration = "D9N"
endpoint_name = "abundance fitness"
recorded_result = -0.008

[[record]]
alteration = "C64R"
endpoint_name = "abundance fitness"
recorded_result = -1.06

[[record]]
alteration = "Q1R"
endpoint_name = "abundance fitness"
recorded_result = -0.228

[[record]]
alteration = "C7L"
endpoint_name = "abundance fitness"
recorded_result = -0.886

[[record]]
alteration = "L5W"
endpoint_name = "abundance fitness"
recorded_result = -0.122

[[record]]
alteration = "D49P"
endpoint_name = "abundance fitness"
recorded_result = -0.482

[[record]]
alteration = "I6V"
endpoint_name = "abundance fitness"
recorded_result = -0.243

[[record]]
alteration = "D45M"
endpoint_name = "abundance fitness"
recorded_result = -0.206

[[record]]
alteration = "F27D"
endpoint_name = "abundance fitness"
recorded_result = -0.519

[[record]]
alteration = "I48D"
endpoint_name = "abundance fitness"
recorded_result = -0.331

[[record]]
alteration = "Y38P"
endpoint_name = "abundance fitness"
recorded_result = -0.007

[[record]]
alteration = "A32M"
endpoint_name = "abundance fitness"
recorded_result = -0.019

[[record]]
alteration = "T47H"
endpoint_name = "abundance fitness"
recorded_result = -0.026

[[record]]
alteration = "A32R"
endpoint_name = "abundance fitness"
recorded_result = -0.155

[[record]]
alteration = "N44F"
endpoint_name = "abundance fitness"
recorded_result = -0.158

[[record]]
alteration = "C40Y"
endpoint_name = "abundance fitness"
recorded_result = -1.13

[[record]]
alteration = "K63I"
endpoint_name = "abundance fitness"
recorded_result = -0.146

[[record]]
alteration = "T47W"
endpoint_name = "abundance fitness"
recorded_result = -0.244

[[record]]
alteration = "I48P"
endpoint_name = "abundance fitness"
recorded_result = -0.25

[[record]]
alteration = "V26N"
endpoint_name = "abundance fitness"
recorded_result = 0.069

[[record]]
alteration = "S23M"
endpoint_name = "abundance fitness"
recorded_result = -0.137

[[record]]
alteration = "L71Y"
endpoint_name = "abundance fitness"
recorded_result = -0.043

[[record]]
alteration = "A32T"
endpoint_name = "abundance fitness"
recorded_result = 0.114

[[record]]
alteration = "G22R"
endpoint_name = "abundance fitness"
recorded_result = -0.166

[[record]]
alteration = "G72K"
endpoint_name = "abundance fitness"
recorded_result = -0.134

[[record]]
alteration = "A31F"
endpoint_name = "abundance fitness"
recorded_result = -0.214

[[record]]
alteration = "C21Y"
endpoint_name = "abundance fitness"
recorded_result = -0.849

[[record]]
alteration = "A32I"
endpoint_name = "abundance fitness"
recorded_result = -0.011

[[record]]
alteration = "K25M"
endpoint_name = "abundance fitness"
recorded_result = 0.013

[[record]]
alteration = "Q1N"
endpoint_name = "abundance fitness"
recorded_result = -0.053

[[record]]
alteration = "S58P"
endpoint_name = "abundance fitness"
recorded_result = 0.013

[[record]]
alteration = "R74L"
endpoint_name = "abundance fitness"
recorded_result = -0.18

[[record]]
alteration = "N44A"
endpoint_name = "abundance fitness"
recorded_result = -0.064

[[record]]
alteration = "K50E"
endpoint_name = "abundance fitness"
recorded_result = -0.124


The measured values listed here are drawn from the Human Domainome abundance scans (Beltran et al. 2025).
